Data provenance is paper PMC9482650.

molecular target: DLG4_1, P78352; assay: holdup assay; set-up: key: below the threshold = too weak to quantify, mostly under pKd 3.1 to 4; conditions: plain residues with an end cap or a label only (N-terminal biotin on a linker: ado-ado)
Sequence (P78352 62-152): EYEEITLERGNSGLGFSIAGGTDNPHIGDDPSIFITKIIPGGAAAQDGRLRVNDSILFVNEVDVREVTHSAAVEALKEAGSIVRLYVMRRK
recorded.metric: pKd

binder	pKd
NSTHNLKDYV [CLDN20, P56880]	below the threshold
AHGSTRDQSI [KCNB1, Q14721]	below the threshold
QQGLLPHSSC [TYRO3, Q06418]	below the threshold
HYPASPDSWV [CTNND2, Q9UQB3]	4.37
GSQSQVETEA [FKBP4, Q02790]	below the threshold

Requested field: pKd. Item: LLQEEWETVM [PTH1R, Q03431] below the threshold

Requested field: pKd. Item: QLGSPTADLA [SIPA1, Q96FS4] below the threshold
